Biological target: T1, human IGSF11 (VSIG3) expressed on cells (human, UniProt Q5DX21 23-431)
T1 sequence: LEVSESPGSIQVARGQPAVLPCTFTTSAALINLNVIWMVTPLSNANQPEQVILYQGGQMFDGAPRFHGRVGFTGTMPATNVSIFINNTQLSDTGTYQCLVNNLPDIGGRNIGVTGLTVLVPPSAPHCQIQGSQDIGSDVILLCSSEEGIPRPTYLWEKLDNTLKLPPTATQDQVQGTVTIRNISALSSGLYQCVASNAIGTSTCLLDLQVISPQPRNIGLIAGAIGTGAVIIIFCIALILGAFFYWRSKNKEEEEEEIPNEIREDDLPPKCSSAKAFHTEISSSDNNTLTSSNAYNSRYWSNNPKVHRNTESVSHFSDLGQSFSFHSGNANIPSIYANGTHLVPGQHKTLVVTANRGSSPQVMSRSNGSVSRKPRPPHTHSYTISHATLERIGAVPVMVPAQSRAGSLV
Assay: FACS, DMS 273 cells with IGSF11 siRNA (KD, knock-down control)
Overview of recorded % binding (FACS heat-map) for various binders

BINDER	% binding (FACS heat-map), %
A-026 (IgG1 format) (antibody, V domains shown, human IgG1 format) VH: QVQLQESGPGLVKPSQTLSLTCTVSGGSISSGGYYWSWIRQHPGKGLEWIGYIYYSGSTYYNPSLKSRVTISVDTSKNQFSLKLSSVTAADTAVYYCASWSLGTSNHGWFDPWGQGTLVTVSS VL: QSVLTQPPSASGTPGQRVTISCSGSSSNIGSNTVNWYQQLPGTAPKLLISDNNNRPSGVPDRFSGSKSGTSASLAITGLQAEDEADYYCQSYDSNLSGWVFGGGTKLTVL	3.81
B-002 (chain-swapped IgG1) (antibody, V domains shown, human IgG1 format; also called B2) VH: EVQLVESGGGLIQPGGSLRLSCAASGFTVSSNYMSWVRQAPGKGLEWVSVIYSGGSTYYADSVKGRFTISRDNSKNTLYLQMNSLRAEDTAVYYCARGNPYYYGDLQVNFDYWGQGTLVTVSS VL: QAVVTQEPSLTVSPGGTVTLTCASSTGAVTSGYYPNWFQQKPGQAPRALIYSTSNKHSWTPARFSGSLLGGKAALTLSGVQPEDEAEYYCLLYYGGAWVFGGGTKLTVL	8.68
